Tested on: ScN2a cells
experimental parameters: mouse
Structures can show the parent of a compound that is named as a salt.
For each record, write down the corresponding Concentration of inhibiting cell proliferation TC.
Give bare numbers, in µM.

Some compounds with known Concentration of inhibiting cell proliferation TC results, for comparison:
>>> reading("CN(C)c1ccc(-c2cn3cc(I)ccc3n2)cc1")
100
>>> reading("CCN(CC)c1ccc(/C=C/c2cn3cc(F)ccc3n2)cc1")
10
>>> reading("CCN(CC)c1ccc2cc(-c3nc4ccccc4[nH]3)c(=O)oc2c1")
100
>>> reading("Nc1ccc(-c2nc3ccc(O)cc3s2)cc1")
10
>>> reading("Nc1ccc(/C=C/c2nc3cc(F)ccc3o2)cc1")
50
>>> reading("Clc1ccc2nc(-c3ccccc3)cn2c1")
100

// for each compound in input: emit Concentration of inhibiting cell proliferation TC
1. CNc1ccc(/C=C/C=C/c2nc3ccccc3s2)cc1
2. CCN(CC)c1ccc(/C=C/c2nc3cc(F)ccc3[nH]2)cc1
3. CCN(CC)c1ccc(/C=C/c2nc3ccccc3[nH]2)cc1
4. Clc1ccc2nc(-c3ccc(Br)s3)cn2c1
5. C/C(=C\c1ccc(N)cc1)c1nc2ccccc2[nH]1
6. CNc1ccc(C=Cc2ccc3ccccc3n2)c(O)c1
7. Cc1cccc(/C=C/c2nc3cc(C)ccc3s2)c1

result:
1: 10; 2: 10; 3: 25; 4: 100; 5: 100; 6: 10; 7: 100

// for each compound in input: emit Concentration of inhibiting cell proliferation TC
1. CN(C)c1ccc2cc(-c3nc4cc(F)ccc4o3)cnc2c1
2. Nc1ccc(/C=C/c2nc3ccccc3[nH]2)cc1 [Compound N-398, sulfate]
3. CN(C)c1ccc(/C=C/c2nc3cc4c(cc3s2)OCO4)cc1
4. Fc1ccc(/C=C/c2nc3ccccc3s2)cc1
5. CN(C)c1ccc(-c2nc3ccccc3s2)cc1
6. Cc1nc(/C=C/c2ccc(N(C)C)cc2)oc1C
7. Nc1cccc(-c2cn3cc(Cl)ccc3n2)c1
8. Nc1ccc(C(=O)Nc2ccc3nc(-c4cc(Cl)c(NC(=O)c5ccc(N)cc5)c(Cl)c4)[nH]c3c2Cl)cc1

result:
1. 100
2. 50
3. 50
4. 100
5. 10
6. 100
7. 100
8. 10

// for each compound in input: emit Concentration of inhibiting cell proliferation TC
1. CCN(CC)c1ccc(/C=C/c2nc3ccccc3s2)cc1 [BF-124, hydrochloride]
2. C(=C\c1nc2ccccc2s1)/c1ccccc1

result:
1: 100; 2: 100
